// provenance: the supplement of paper PMC10567573

B1: RHOBTB3 (parent)
chain: QLQSMPSRELASMNLDIVDLLKKA

- Variants of: B1
- experiment-notes: protein stability index of a GFP-peptide fusion (GPS, HEK-293T) (PSI 1-6); higher = more stable;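 note: lentivirally expressed fusions sorted by FACS into six bins by GFP to DsRed ratio, PSI derived from sequencing read proportions per bin multiplied by bin number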
- test-context: c terminus: a fixed tail appended
measured-quantity: protein stability index
Write no unit; give the number alone.

Please review the entries below; each comes with its answer.
INSERT INTO results (sequence_entry, measured_quantity, test_value) VALUES
  ('QLQSMPSREYASMNLDIVDLLKKA [L10Y]', 'protein stability index', 3.88),
  ('QLQSMPSRELWSMNLDIVDLLKKA [A11W]', 'protein stability index', 2.79),
  ('QLQSMPSRELASMNLDIVDLGKKA [L21G]', 'protein stability index', 3.91),
  ('QLQSMPSRELAHMNLDIVDLLKKA [S12H]', 'protein stability index', 3.06),
  ('QLQSMPSRELASMNADIVDLLKKA [L15A]', 'protein stability index', 3.67),
  ('QLQSMPSRELASMQLDIVDLLKKA [N14Q]', 'protein stability index', 3.3);

QUERY: # query: protein stability index of entry QLQSMPSVELASMNLDIVDLLKKA [R8V]
RESULT: 3.83

QUERY: What value of protein stability index has been reported for the following variant? QLQSMPSRELASMNLDIVVLLKKA [D19V]
RESULT: 2.16

QUERY: Field request: protein stability index | item: PLQSMPSRELASMNLDIVDLLKKA [Q1P]
RESULT: 4.72

QUERY: Give its protein stability index value. Item: QLQSMPSREDASMNLDIVDLLKKA [L10D]
RESULT: 4.09

QUERY: So what's the measured protein stability index for this one? QLQSMPSRELASMCLDIVDLLKKA [N14C]
RESULT: 2.16

QUERY: Please look up its protein stability index: QLQSMPSRELASMNKDIVDLLKKA [L15K]
RESULT: 4.45

QUERY: Name the reported protein stability index value associated with the variant QLQSMPSRELASMNLPIVDLLKKA [D16P]
RESULT: 2.75

QUERY: I would be grateful if you could share the reported protein stability index for QLQSMPSAELASMNLDIVDLLKKA [R8A] .
RESULT: 4.22

QUERY: Look up protein stability index for this variant: QLQSMPSRELASMNLDIVDLLMKA [K22M]
RESULT: 2.9

QUERY: What does the data say about its protein stability index? Entry: QLQSMPSRELASMNLDIVDLLKTA [K23T]
RESULT: 3.4
